assay: modulators of S6 phosphorylation in cells, primary screen, cell-based, A549, cytoblot, luminescence, serum-stimulated (AID 1158); conditions: A549 phospho-S6 cytoblot, 5 h, higher = more signal;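 further: serum-stimulated A549 lung adenocarcinoma cells; signal is phosphorylated S6 detected by cytoblot immunostaining with HRP secondary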
measurement name: z-score
Reply with just the number.

See these solved cases before continuing.
# compound, experimental value
data = [
    ("CC(=O)NCCCC[C@@H]1NC(=O)[C@@H]2C[C@H](C(=O)NCc3ccc(F)cc3)[C@H](c3cccc(OCCO)c3)N2C1=O", -0.206),
    ("[N-]=[N+]=NCc1ccccc1C[C@]1(C(N)=O)N=C(c2ccc(OCCCO)cc2)O[C@H]1c1ccccc1CN=[N+]=[N-]", 2.41),
    ("[N-]=[N+]=Nc1ccccc1C[C@@]1(C(=O)N2CCOCC2)N=C(c2ccc(OCCCO)cc2)O[C@@H]1c1ccccc1N=[N+]=[N-]", 2.07),
    ("C[C@@H]1C=CCC(=O)OC[C@H]2O[C@@H](C=C[C@@H]2O)[C@H](C)C=CCC(=O)OC[C@H]2O[C@H]1C=C[C@@H]2O", 2.22),
    ("O=C1c2ccccc2[C@](Cc2ccccc2I)(C(=O)NCC(F)(F)F)[C@H](c2ccc(CO)cc2)N1Cc1ccccc1C(F)(F)F", 0.179),
    ("CC(C)(C)OC(=O)CC[C@@]1(C(=O)NCc2ccccc2)N=C(c2ccc(OCCCO)cc2)O[C@@H]1c1ccccc1", 3.43),
]

Form field: reported z-score of COc1cc([C@@H]2N[C@H](C(=O)O)Cc3c2[nH]c2ccccc32)cc(OC)c1OC
0.172

Now the compound CCCN1C(=O)[C@@]2(CCS(=O)(=O)c3ccccc3)N=C(c3ccc(OCCCO)cc3)O[C@H]2c2ccccc21
0.43

Now the compound COC(=O)[C@H]1[C@@H]2COc3ccccc3[C@H]2N[C@H]1C(=O)OC
0.12

Now the compound O=C(NCc1ccccc1)[C@@]1(CCS(=O)(=O)c2ccccc2)COC(c2ccc(OCCCO)cc2)=N1
2.54

Now the compound Cc1ccc(S[C@]2(C(=O)NCCCN(C)C)CC(=O)N(C3CCCCC3)[C@@H]2c2ccc(CO)cc2I)cc1
1.72
